molecular target: CCR2 (Homo sapiens, UniProt P41597); assay: MCP-1 Receptor Binding Assay in THP-1 Cells; conditions: 0.5 nM 125I labeled MCP-1, 2 hours at 30° C., less polar isomer tested where stated, read-out: Inhibition of MCP-1 Binding IC50, CCR2 Binding
Sequence (P41597 1-360 isoform P41597-2): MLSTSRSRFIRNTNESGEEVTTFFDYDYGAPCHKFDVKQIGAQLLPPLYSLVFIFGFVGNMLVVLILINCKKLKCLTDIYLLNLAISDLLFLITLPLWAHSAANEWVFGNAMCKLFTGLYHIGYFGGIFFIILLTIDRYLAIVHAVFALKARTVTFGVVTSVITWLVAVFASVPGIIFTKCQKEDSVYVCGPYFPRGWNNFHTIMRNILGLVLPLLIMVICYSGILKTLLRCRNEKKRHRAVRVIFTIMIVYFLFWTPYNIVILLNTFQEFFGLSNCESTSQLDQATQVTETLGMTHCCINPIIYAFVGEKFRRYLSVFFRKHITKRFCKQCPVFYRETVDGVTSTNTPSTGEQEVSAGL
pIC50: −log10 of the molar value. Where a name gives a salt, the structure may show the parent alone.
reported.property: pIC50

A selection of reference data follows.
>  <compound>
CCC(O)[C@H]1CC[C@H](N2CC(NC(=O)CNc3n[nH]c4ncc(C(F)(F)F)cc34)C2)CC1 (single isomer, unassigned) [Example 106]

>  <target>
CCR2 (Homo sapiens, UniProt P41597)

>  <pIC50>
6.48

$$$$
>  <compound>
NC(=O)Cc1ccc(C2CCC(N3CC(NC(=O)CNc4n[nH]c5ccc(C(F)(F)F)cc45)C3)CC2)cc1 (centres unmarked) [Example 47]

>  <target>
CCR2 (Homo sapiens, UniProt P41597)

>  <pIC50>
7.92

$$$$
>  <compound>
Cc1ccc(C2(O)CCC(N3CC(NC(=O)CNc4n[nH]c5ccc(C(F)(F)F)cc45)C3)CC2)cn1 (centres unmarked) [Example 43]

>  <target>
CCR2 (Homo sapiens, UniProt P41597)

>  <pIC50>
8.24

$$$$
>  <compound>
Cn1nc(NCC(=O)NC2CN(C3CCC(O)(c4cccnc4)CC3)C2)c2cc(C(F)(F)F)ccc21 (centres unmarked) [Example 19]

>  <target>
CCR2 (Homo sapiens, UniProt P41597)

>  <pIC50>
7.25

$$$$
>  <compound>
NC(=O)n1nc(NCC(=O)NC2CN(C3CCC(O)(c4nccs4)CC3)C2)c2cc(C(F)(F)F)ccc21 (centres unmarked) [Example 81]

>  <target>
CCR2 (Homo sapiens, UniProt P41597)

>  <pIC50>
7.54

$$$$

P: O=C(CNc1n[nH]c2ccc(C(F)(F)F)nc12)NC1CN([C@H]2CC[C@@](O)(c3cncs3)CC2)C1 [Example 104]
Q: Cn1nc(NCC(=O)NC2CN(C3CCC(O)(c4nccs4)CC3)C2)c2cc(OC(F)(F)F)ccc21 (centres unmarked) [Example 54]
R: CCOC(=O)C1CCC(N2CC(NC(=O)CNc3nn(C(N)=O)c4ccc(C(F)(F)F)cc34)C2)CC1 (centres unmarked) [Example 89]
S: CC(C)(C)NC(=O)n1nc(NCC(=O)NC2CN(C3CCC(O[Si](C)(C)C(C)(C)C)CC3)C2)c2cc(C(F)(F)F)ccc21 (centres unmarked) [Example 84]
T: NC1CCC(N2CC(NC(=O)CNc3noc4ccc(C(F)(F)F)cc34)C2)CC1 (centres unmarked) [Example 11, TFA salt]
Ranking field: pIC50; order: falling. Please, when replying, give the labels in the order that was requested. Q, R, P, S, T
(Q: 7.46, R: 7.25, P: 6.64, S: 6.06, T: 5.54)

P: CCOC(=O)C1CCC(N2CC(NC(=O)CNc3nn(C(=O)NC(C)(C)C)c4ccc(C(F)(F)F)cc34)C2)CC1 (centres unmarked) [Example 88]
Q: CCOC(=O)C1CCC(N2CC(NC(=O)CNc3nn(C)c4ccc(OC(F)(F)F)cc34)C2)CC1 (single isomer, unassigned) [Example 58]
For P and Q , which recorded pIC50 is lower? I would appreciate it if you answered with the label of your choice. P

* * *

target: CCR2 (Homo sapiens); construct: host or cells: THP-1 human monocytic cells; assay: MCP-1 Receptor Binding Assay in THP-1 Cells; settings: 0.5 nM 125I labeled MCP-1, 2 hours at 30° C., less polar isomer tested where stated, read-out: Inhibition of MCP-1 Binding IC50, CCR2 Binding
reported.property: IC50 (nM)

A: CCn1nc(NCC(=O)NC2CN(C3CCC(O)(c4cncs4)CC3)C2)c2cc(C(F)(F)F)ccc21 (stereo not drawn) [Example 67]
B: CC(C)NC(=O)n1nc(NCC(=O)NC2CN(C3CCC(c4ccccc4)CC3)C2)c2cc(C(F)(F)F)ccc21 (stereo not drawn) [Example 90]
C: O=C(CNc1noc2ccc(C(F)(F)F)cc12)NC1CN(C2CCC(O)CC2)C1 (stereo not drawn) [Example 9]
List the 3 compounds shown above, ordered by increasing IC50. Give the labels in the order specified. A, B, C

* * *

Molecular target: CCR2 (Homo sapiens)
Assay: MCP-1 Receptor Binding Assay in THP-1 Cells
Details: 0.5 nM 125I labeled MCP-1, 2 hours at 30° C., less polar isomer tested where stated, read-out: Inhibition of MCP-1 Binding IC50, CCR2 Binding
Experimental: MCP-1 Receptor Binding Assay in THP-1 Cells Human monocytic cell line THP-1 cells were obtained from American Type Culture Collection (Manassas, Va., USA). The THP-1 cells were grown in RPMI-1640 (RPMI: Roswell Park Memorial Institute Medium-cell culture growth media) supplemented with 10% fetal bovine serum in a humidified 5% CO2 atmosphere at 37° C. The cell density was maintained […]. […]
reported.property: IC50 (nM)

Reference set, count: 5
>  <molecule>
CCC(O)[C@H]1CC[C@@H](N2CC(NC(=O)CNc3n[nH]c4ncc(C(F)(F)F)cc34)C2)CC1 (single isomer, unassigned)

>  <IC50, nM>
330

$$$$
>  <molecule>
Cn1nc(NCC(=O)NC2CN(C3CCC(O)(c4ncco4)CC3)C2)c2cc(C(F)(F)F)ccc21 (stereo not shown)

>  <IC50, nM>
146

$$$$
>  <molecule>
N#CC1CCC(N2CC(NC(=O)CNc3n[nH]c4ccc(C(F)(F)F)cc34)C2)CC1 (stereo not shown)

>  <IC50, nM>
430

$$$$
>  <molecule>
CC(C)(C)[Si](C)(C)OC1CCC(N2CC(NC(=O)CNc3noc4ccc(C(F)(F)F)cc34)C2)CC1 (stereo not shown)

>  <IC50, nM>
7700

$$$$
>  <molecule>
COc1ccc(C2CCC(N3CC(NC(=O)CNc4nn(C(=O)NC(C)C)c5ccc(C(F)(F)F)cc45)C3)CC2)cn1 (stereo not shown)

>  <IC50, nM>
14

$$$$

P: CCOc1ccc(C2(O)CCC(N3CC(NC(=O)CNc4nn(C(N)=O)c5ccc(C(F)(F)F)cc45)C3)CC2)cn1 (stereo not shown)
Q: CCc1ncc(C2(O)CCC(N3CC(NC(=O)CNc4nn(C)c5ccc(C(O)C(F)(F)F)cc45)C3)CC2)s1 (stereo not shown)
Smaller IC50 value? Options are P and Q Lab log: write the label of the selected item as the result. P
(P: 22 nM, Q: 1500 nM)

* * *

target: CCR2 (Homo sapiens, UniProt P41597); construct: host or cells: THP-1 human monocytic cells; assay: MCP-1 Receptor Binding Assay in THP-1 Cells; settings: 0.5 nM 125I labeled MCP-1, 2 hours at 30° C., less polar isomer tested where stated, read-out: Inhibition of MCP-1 Binding IC50, CCR2 Binding
pIC50: −log10 of the molar value.
reported.property: pIC50

In the examples that follow, each entry is paired with its recorded pIC50.
>  <molecule>
CCc1ncc(C2(O)CCC(N3CC(NC(=O)CNc4nn(C)c5ccc(C(F)(F)F)cc45)C3)CC2)s1 (centres unmarked) [Example 23]

>  <pIC50>
6.74

$$$$
>  <molecule>
Cc1ccc(C2(O)CCC(N3CC(NC(=O)CNc4nn(C)c5ccc(OCC(F)(F)F)cc45)C3)CC2)cn1 (centres unmarked) [Example 101]

>  <pIC50>
5.96

$$$$
>  <molecule>
Cc1ccc(C2(O)CCC(N3CC(NC(=O)CNc4nn(C)c5ccc(C(F)(F)F)cc45)C3)CC2)cn1 (centres unmarked) [Example 30]

>  <pIC50>
8.12

$$$$
>  <molecule>
C=CCOC1CCC(N2CC(NC(=O)CNc3nn(C)c4ccc(C(F)(F)F)cc34)C2)CC1 (centres unmarked) [Example 37]

>  <pIC50>
6.87

$$$$
>  <molecule>
Cn1nc(NCC(=O)NC2CN(C3CCC(C#N)CC3)C2)c2cc(C(F)(F)F)ccc21 (centres unmarked) [Example 38]

>  <pIC50>
6.82

$$$$

a: CC(C)(C)OC(=O)NC1CCC(N2CC(NC(=O)CNc3noc4ccc(C(F)(F)F)cc34)C2)CC1 (centres unmarked) [Example 10]
b: CC(C)C1CCC(N2CC(NC(=O)CNc3noc4ccc(C(F)(F)F)cc34)C2)CC1 (centres unmarked) [Example 7]
c: Cn1nc(NCC(=O)NC2CN(C3CCC(O)(c4cncs4)CC3)C2)c2cc(C(O)C(F)(F)F)ccc21 (centres unmarked) [Example 61]
Hey, quick one: sort these by pIC50, largest value first please. Give the labels in the order specified. b, a, c
(b: 6.77, a: 6.12, c: 5.77)
